UniProtKB P56817 measurements of log10(IC50), listed per entry.
Sequence (P56817 46-501): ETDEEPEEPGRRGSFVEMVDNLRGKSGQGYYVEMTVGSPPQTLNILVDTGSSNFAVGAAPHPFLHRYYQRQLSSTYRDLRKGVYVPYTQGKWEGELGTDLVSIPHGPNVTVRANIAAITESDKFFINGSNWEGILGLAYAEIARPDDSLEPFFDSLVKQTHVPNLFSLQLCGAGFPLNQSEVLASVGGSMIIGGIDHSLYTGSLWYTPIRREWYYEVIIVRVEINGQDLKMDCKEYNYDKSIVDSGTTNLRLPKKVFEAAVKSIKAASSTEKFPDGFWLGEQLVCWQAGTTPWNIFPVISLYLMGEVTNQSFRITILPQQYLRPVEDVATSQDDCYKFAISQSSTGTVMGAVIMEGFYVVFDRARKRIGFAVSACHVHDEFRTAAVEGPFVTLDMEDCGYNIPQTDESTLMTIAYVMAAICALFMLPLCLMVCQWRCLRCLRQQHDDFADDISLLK
Experimental Readout: log10(IC50) (log10 of the value in nM)

>>> result_value("NC1=N[C@@]2(c3cc(-c4cccnc4F)ccc3Oc3c(F)cc(N4CCOCC4)cc32)c2nccn21")
-0.15
>>> result_value("COc1cc(F)c2c(c1)C1(N=C(N)n3ccnc31)c1cc(-c3cccnc3F)ccc1O2 (stereo not shown)")
0.95
>>> result_value("NC1=N[C@]2(c3cc(-c4cccnc4F)ccc3Oc3c(F)cc(N4CCOCC4)cc32)c2nccn21")
2.28
>>> result_value("Cc1ccc(-c2cc(F)c3c(c2)[C@@]2(N=C(N)n4ccnc42)c2cc(-c4cccnc4F)ccc2O3)cc1")
-0.40
>>> result_value("NC1=N[C@]2(c3cc(-c4cccnc4F)ccc3Oc3c(F)cc(N4CCC(F)(F)CC4)cc32)c2nccn21")
-0.15
>>> result_value("NC1=N[C@@]2(c3cc(-c4cccnc4F)ccc3Oc3c(F)cc(-c4ccnc(F)c4)cc32)c2nccn21")
-0.52
>>> result_value("NC1=N[C@@]2(c3cc(-c4cccnc4F)ccc3Oc3c(F)cc(C4=CCCOC4)cc32)c2nccn21")
1.36

Hey, just so you know, these numbers are from patent US8962859B2.
